B1: library; a variant is named by its letters at N, in order (parent)
chain: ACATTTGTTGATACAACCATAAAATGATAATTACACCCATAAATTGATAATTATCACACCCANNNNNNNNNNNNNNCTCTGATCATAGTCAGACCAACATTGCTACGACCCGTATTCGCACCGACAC

Variants of: B1
Test: relative integration efficiency (T-RL orientation) vs wild-type transposon end (log2 (normalized fold change)); transposon end mutated: right end (5 bp flank + 75 bp right end); higher = more efficient transposition
Details: with VchCAST RNA-guided transposition machinery (E. coli BL21(DE3) host, lacZ target)
MEASURED_PARAMETER: relative integration efficiency (log2)

ATTTAACTATAACG A27C ... -1.49
TAAATTTCGCTTGC ... -0.702
TAAATTGATAAAGC ... -0.251
TAAATTGATATTGC A15G ... -0.381
TAAATTGATATTGC T45G ... -0.479
ATTTAACTATAACG T45A ... -1.14
TAAATTGATATTGC A22G ... -0.771
TACATTGATATTGC ... -0.674
ATTTAACTATAACG A22T ... -0.696
ATTTAACTATAACG T48G ... -1.18
ATTTAACTATAACG T6G ... -6.3
ATTTAACTATAACG A47T ... -1.17
TAAATTGATATTGC C38G ... 0.03
TAAATTGATATTGC A35G ... -0.559
ATTTAACTATAACG T9C ... -0.756
TAAATTGATATTGC C17T ... 7.24e-05
ATTTAACTATAACG A16T ... -0.779
ATTTAACTATAACG A19G ... -0.904
TAAATTGATATTGC G10T ... -0.712
ATTTAACTATAACG A62C ... -1.03
TAAATTGATATTGC C77G ... 0.0121
TAAAATGATAATTA C59A ... 0.000716
TAAATTGCGATTGC ... -0.463
TAAATTAATATTGC ... -0.319
TAAATTGATATTGC A43C ... -0.127
ATTTAACTATAACG T20A ... -1.07
ATTTAACTATAACG A42G ... -1.62
TAAATTGATATTGC A42T ... 0.0512
TAAATTGATATTGC C38A ... -0.117
TAAAAAGATATTGC ... -0.0646
TAAATTGATATTGC T6G ... -6.66
ATTTAACTATAACG A39G ... -0.496
ATTTAACTATAACG A11C ... -0.753
ATTTAACTATAACG C61A ... -0.657
ATTTAACTATAACG T25G ... -1.44
TAAATTGATATGTC ... -0.17
TAAATTGATATTGC C2G ... 0.0801
ATTTAACTATAACG C38T ... -0.901
ATTTAACTATAACG ... -0.618
ATTTAACTATAACG A30C ... -1.2
TAATTTGATATTGC ... 0.169
